Assay: In vivo pharmacokinetic interaction study in Sprague-Dawley rats
Settings: male, Sprague-Dawley, rat, plasma, po, 25 mg/kg, group Crizotinib + Tropifexor: oral tropifexor 20 µg/kg 30 min before oral crizotinib 25 mg/kg, rat plasma, n = 5, mean ± S.D.
Description: Protein precipitation was used to remove proteins from plasma and extract the test materials. To this end, 100 µL of plasma sample was combined with 10 µL of the IS working solution (400 ng/mL) and 300 µL of acetonitrile. The mixture was then centrifuged at 13,000 rpm for 10 min at 4 °C to ensure complete protein precipitation. After centrifugation, the supernatant was carefully collected and transferred into a sample vial. Finally, 2.0 µL of sample was injected for UPLC-MS/MS analysis. […]
MEASURED ATTRIBUTE: AUC(0-t)
Answers without a unit are incomplete; give the number and then its unit.

[
  {
    "MOLECULE": "C[C@@H](Oc1cc(-c2cnn(C3CCNC(=O)C3)c2)cnc1N)c1c(Cl)ccc(F)c1Cl (some centres unmarked)",
    "MEASURED ATTRIBUTE": "AUC(0-t)",
    "RECORDED VALUE": "877 ng·h/mL"
  }
]

Query: Look at this molecule and give its reported AUC(0-t). C[C@@H](Oc1cc(-c2cnn(C3CCNCC3)c2)cnc1N)c1c(Cl)ccc(F)c1Cl
Reply: 5560 ng·h/mL
